# assay-method-text: ACEA_AR_antagonist_AUC_viability: ACEA Biosciences xCELLigence Real-Time Cell Analysis on Androgen Receptor Antagonism for Viability (AID 2283776);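 further: 22Rv1 human prostate cancer cells growing on impedance electrode plates; area under impedance growth curve at 80 h after dosing as viability; hits lower the growth signal relative to DMSO meaning cytotoxicity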
Records with an inconclusive call do not appear. The source made the active and inactive calls. How the source made its calls: active means hit-call score of the fitted dose curve at least 0.9, where 1 is the maximum; inconclusive means response in the unintended direction; inactive means score below 0.9.
Returns: one label drawn from TRUE for active, FALSE for inactive

Illustrative cases are given below, each with its answer.
CCCCc1ccc2ccccc2c1S(=O)(=O)O ... FALSE
CC(=O)Nc1ccc(O)cc1 ... FALSE
CCc1ccccc1O ... FALSE
c1cnc2c(c1)ccc1cccnc12 ... TRUE
Cc1ccc(C)c(S(=O)(=O)O)c1 ... TRUE

Prompt line: So what was the verdict on CCCCCCCCCCCC(=O)O in this test?
Response line: FALSE

Prompt line: Hi, do you know how CCCCC(CC)C(=O)O (centres undefined) came out in this test?
Response line: FALSE

Prompt line: Tell me the recorded outcome of this test for O=C(c1ccccc1)c1ccccc1 .
Response line: FALSE

Prompt line: Hi, sorry to bother you, what did the test record for CC(O)COc1ccccc1 (centres undefined) ?
Response line: FALSE

Prompt line: Hi, sorry to bother you, what did the test record for CCCCCCc1ccc(N)cc1 ?
Response line: FALSE
